FYI, the data here is from ChEMBL document CHEMBL4130596.

experimental_details: Aqueous solubility of the compound in Britton-Robinson buffer after 48 hrs at pH 6.5 by UV-vis spectrophotometry based shake flask method
Format: physicochemical
recorded_endpoint: solubility thermodynamic at 48 h (µg/mL)
Hi! Could you send only the number? It should be in µg/mL, unit omitted.

Report solubility thermodynamic at 48 h for `O=C(O)Cn1ccc2ccc(-c3cn(-c4ccc(O)c(F)c4)nn3)nc2c1=O` please.
288
